Each entry below carries its recorded SPOT peptide array binding signal intensity.
# measured_target: AgHof1
# method_notes: SPOT peptide array binding signal intensity (averaged, normalized) (arbitrary units (background-subtracted, floor 0; scale differs between SH3 domains)); higher = stronger binding of the SH3 domain to the peptide

Worked cases, answers included:
Given the binder DHPKGPPPPPPPDEK , what is its reported SPOT peptide array binding signal intensity?
≤ 0

What does the data say about its SPOT peptide array binding signal intensity? Entry: TKHKAPPPPPPTAET
≤ 0

Entry LASNSPPVYPKRIRH : reported SPOT peptide array binding signal intensity = ?
≤ 0

Fill in: SPOT peptide array binding signal intensity of PSPSSSPPPIPKTAN is ___
≤ 0

Name the recorded SPOT peptide array binding signal intensity for DLFKPLPEPPTELGR .
≤ 0

Further cases:
// returns reported SPOT peptide array binding signal intensity for input VNIPSPSSSPPPIPK
≤ 0
